Source of measurements: patent US10364314B2

# Assay comment: Solubility in PGME and PGMEA at 23° C.
# Format: physicochemical
Assay metric: Evaluation of the solubility in PGME and PGMEA

* Oc1ccc2c3c(ccc2c1)Oc1ccc2cc(O)ccc2c1C3c1c[nH]cn1 | A (10% by mass or more)
* Oc1ccc(-c2ccc(O)c(C(c3c[nH]cn3)c3cc(-c4ccc(O)cc4)ccc3O)c2)cc1 | A (10% by mass or more)
* CCCCc1nc(C2c3c(ccc4cc(O)ccc34)Oc3ccc4cc(O)ccc4c32)c(Cl)[nH]1 | A (10% by mass or more)
* Oc1ccc2ccc3c(c2c1)C(c1c[nH]cn1)c1c(ccc2ccc(O)cc12)O3 | A (10% by mass or more)

----------
# Assay comment: Solubility in PGME and PGMEA at 23° C.
# Format: physicochemical
# solubility in PGME and PGMEA listing for each entry below

The reported value for Oc1ccc2c3c(ccc2c1)Oc1ccc2cc(O)ccc2c1C3c1c[nH]c(-c2ccccc2)n1 [IMX-4] in terms of solubility in PGME and PGMEA is ≥ 5 % by mass

The reported value for Oc1ccc2c3c(ccc2c1)Oc1ccc2cc(O)ccc2c1C3c1c[nH]cn1 [IMX-2] in terms of solubility in PGME and PGMEA is ≥ 10 % by mass

The reported value for Oc1ccc(-c2ccc(O)c(C(c3c[nH]cn3)c3cc(-c4ccc(O)cc4)ccc3O)c2)cc1 [IMX-3] in terms of solubility in PGME and PGMEA is ≥ 10 % by mass

The reported value for CCCCc1nc(C2c3c(ccc4cc(O)ccc34)Oc3ccc4cc(O)ccc4c32)c(Cl)[nH]1 [IMX-5] in terms of solubility in PGME and PGMEA is ≥ 10 % by mass

The reported value for Oc1ccc2ccc3c(c2c1)C(c1c[nH]cn1)c1c(ccc2ccc(O)cc12)O3 [IMX-1] in terms of solubility in PGME and PGMEA is ≥ 10 % by mass
